Entries annotated with measured growth inhibition
Protocol description: NCI Yeast Anticancer Drug Screen. Data for the mec2-1 strain (AID 157)
Test settings: S. cerevisiae mec2-1 strain, at 5.0 µM (retest, dose inferred, filed as 0.5), stronger effect = higher value
This is part of a sample that, as a whole, favours compounds with a hit. Of some 79,000 tested, about 15% had one in any assay. Calls of active or inactive are those of the source. No stated cut-off is given here; in the data, active means growth inhibition above about 70%; inactive means the rest.

molecule=CN(Cc1ccccc1)c1nc(=[N+](C)C)ss1 test_value="-5% (inactive)"
molecule="O=C(c1ccccc1)C1OC1c1ccccc1Cl (configuration not stated)" test_value="-4% (inactive)"
molecule=FC(F)(F)c1nc(S)cc(=S)[nH]1 test_value="4% (inactive)"
molecule=O=C(c1ccccc1)c1ccccc1S(=O)(=O)Nc1ccccc1 test_value="-2% (inactive)"
molecule="COc1cc(C(c2cc3c(cc2O)OCO3)N2CCCCC2)cc(OC)c1OC (configuration not stated)" test_value="0% (inactive)"

Looking up CCOC(=O)C(NC(=O)C(CO)n1c(-c2ccccc2)c(-c2ccccc2)oc1=O)C(=O)OCC (configuration not stated) , I see its growth inhibition listed as 2% (inactive)

Looking up O.O.O=C(O)C(O)C(O)C(OC1OC(CO)C(O)C(O)C1O)C(O)CO.O=C(O)C(O)C(O)C(OC1OC(CO)C(O)C(O)C1O)C(O)CO.[NH-]C1CCCCC1[NH-].[Pt+2] (configuration not stated) , I see its growth inhibition listed as -6% (inactive)

Looking up "CSc1ncccc1C(=O)[O][Sn]([c]1ccccc1)([c]1ccccc1)[c]1ccccc1" , I see its growth inhibition listed as 100% (active)

Looking up "Cc1ccc(-c2c3c(cc4cc(C)ccc24)C(=O)OC3=O)cc1" , I see its growth inhibition listed as -2% (inactive)

Looking up "Nc1ccc2nc3c(nc2c1)C(=O)c1ccccc1-3" , I see its growth inhibition listed as 10% (inactive)

Looking up CNC(=O)OC(C)CN1c2ccccc2Sc2ccccc21 (configuration not stated) , I see its growth inhibition listed as -21% (inactive)

Looking up "CCCc1cc(=O)oc2c3c(c4c(c12)OC(C)(C)C=C4)O[C@@H](C)[C@H](C)[C@H]3O" , I see its growth inhibition listed as 0% (inactive)

Looking up "COC(=O)c1ncc(Cl)cc1Cl" , I see its growth inhibition listed as 0% (inactive)

Looking up "Nc1ncnc2c1c(-c1ccccc1)cn2-c1ccc(Cl)cc1" , I see its growth inhibition listed as 2% (inactive)
